- experimental system: cynomolgus macaque prostaglandin receptor EP4 (cynEP4) (Macaca fascicularis, UniProt Q95J39)
- Sequence (Q95J39 entry or part of it): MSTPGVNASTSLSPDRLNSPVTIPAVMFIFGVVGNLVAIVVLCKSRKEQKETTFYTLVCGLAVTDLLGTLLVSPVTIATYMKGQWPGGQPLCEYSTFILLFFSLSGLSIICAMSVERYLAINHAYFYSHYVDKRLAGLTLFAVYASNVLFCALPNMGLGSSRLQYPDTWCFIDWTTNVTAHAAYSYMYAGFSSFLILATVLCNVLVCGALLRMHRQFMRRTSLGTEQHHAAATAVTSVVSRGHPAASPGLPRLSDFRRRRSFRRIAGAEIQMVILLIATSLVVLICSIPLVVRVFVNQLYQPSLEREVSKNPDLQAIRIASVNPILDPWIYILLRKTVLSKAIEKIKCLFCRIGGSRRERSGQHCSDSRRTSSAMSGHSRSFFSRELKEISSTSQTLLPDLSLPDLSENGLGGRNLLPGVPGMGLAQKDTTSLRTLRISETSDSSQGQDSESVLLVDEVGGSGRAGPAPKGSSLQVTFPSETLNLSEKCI
- test name: Competition binding with 3H-PGE2 on CHO-K1 cells transiently transfected with cynomolgus macaque EP4
- cond: cynEP4 transfected CHO-K1 whole cells, 3 nM 3H-PGE2, 1 hr on ice; read-out: IC50, displacement of 3H-PGE2 binding
readout label: pIC50
Kindly note that pIC50 refers to -log10 of the concentration in mol/L and answer with the value alone.

compound	pIC50
CCCCC[C@H](O)/C=C/[C@H]1[C@H](O)CC(=O)[C@@H]1C/C=C\CCCC(=O)O [PGE2, Prostaglandin E2]	8.60

Data point: O=C(O)CCCCCCN1C(=O)CCC1CCC(O)Cc1ccccc1 (centres unmarked) [EP4SL] ; pIC50 = 6.52
